Biological target: Bifunctional epoxide hydrolase 2 (Homo sapiens) (UniProt P34913)
Sequence (P34913 whole entry): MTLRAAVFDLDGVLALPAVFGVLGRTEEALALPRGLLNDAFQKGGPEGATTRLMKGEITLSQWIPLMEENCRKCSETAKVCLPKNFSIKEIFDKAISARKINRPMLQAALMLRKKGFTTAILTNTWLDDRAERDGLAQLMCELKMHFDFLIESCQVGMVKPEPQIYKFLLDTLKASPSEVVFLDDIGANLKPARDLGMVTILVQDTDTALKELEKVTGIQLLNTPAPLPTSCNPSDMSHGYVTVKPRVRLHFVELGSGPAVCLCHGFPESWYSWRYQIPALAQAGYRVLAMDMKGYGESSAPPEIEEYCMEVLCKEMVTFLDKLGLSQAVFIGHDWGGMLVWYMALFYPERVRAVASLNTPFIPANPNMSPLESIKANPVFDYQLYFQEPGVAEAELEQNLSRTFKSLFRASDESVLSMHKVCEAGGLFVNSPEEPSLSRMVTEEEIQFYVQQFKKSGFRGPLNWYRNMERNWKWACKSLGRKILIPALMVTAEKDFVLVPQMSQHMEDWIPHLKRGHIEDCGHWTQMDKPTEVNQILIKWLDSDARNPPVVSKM
Assay: Inhibition of sEH (unknown origin) assessed as substrate PHOME hydrolysis at 25 uM after 1 hr by fluorescence method
I'd be grateful if you could share measured inhibition for these entries.

Below, each entry is followed by its recorded inhibition result.
[[record]]
compound = "O=c1oc2c(O)c(O)cc3c(=O)oc4c(O)c(O)cc1c4c23"
reported_property = "inhibition"
observed_measurement = "> 40%"

[[record]]
compound = "O=C(CCc1ccc(O)cc1)c1c(O)cc(O)cc1O[C@@H]1O[C@H](CO)[C@@H](O)[C@H](O)[C@H]1O"
reported_property = "inhibition"
observed_measurement = "> 40%"

[[record]]
compound = "COC/C=C/c1ccc(O[C@@H]2O[C@H](CO)[C@@H](O)[C@H](O)[C@H]2O)c(OC)c1"
reported_property = "inhibition"
observed_measurement = "< 40%"

[[record]]
compound = "O=C(O[C@H]1[C@H](Oc2c(-c3ccc(O)c(O)c3)oc3cc(O)cc(O)c3c2=O)O[C@H](CO)[C@@H](O)[C@@H]1O)c1cc(O)c(O)c(O)c1"
reported_property = "inhibition"
observed_measurement = "> 40%"


Parameter requested: inhibition. Apply to each item below.
1. O=C(O[C@H]1[C@H](Oc2c(-c3ccc(O)cc3)oc3cc(O)cc(O)c3c2=O)O[C@H](CO)[C@@H](O)[C@@H]1OC(=O)c1cc(O)c(O)c(O)c1)c1cc(O)c(O)c(O)c1
2. O=c1c(O[C@@H]2O[C@H](CO)[C@@H](O)[C@H](O)[C@H]2O)c(-c2ccc(O)cc2)oc2cc(O)cc(O)c12
3. C[C@@H]1O[C@@H](Oc2c(-c3ccc(O)c(O)c3)oc3cc(O)cc(O)c3c2=O)[C@H](OC(=O)c2cc(O)c(O)c(O)c2)[C@H](O)[C@H]1O

result:
1. > 40%
2. > 40%
3. > 40%

Parameter requested: inhibition. Apply to each item below.
1. COC/C=C/c1ccc(O[C@@H](CO)CO[C@@H]2O[C@H](CO)[C@@H](O)[C@H](O)[C@H]2O)c(OC)c1
2. C[C@@H]1O[C@@H](OC[C@H]2O[C@@H](Oc3c(-c4ccc(O)c(O)c4)oc4cc(O)cc(O)c4c3=O)[C@H](O)[C@@H](O)[C@@H]2O)[C@H](O)[C@H](O)[C@H]1O
3. O=c1c(O[C@@H]2O[C@H](CO)[C@@H](O)[C@H](O)[C@H]2O)c(-c2ccc(O)c(O)c2)oc2cc(O)cc(O)c12
4. O=C1C[C@H](C(=O)O)c2c1oc(=O)c1cc(O)c(O)c(O)c21
5. O=c1c(O[C@@H]2O[C@H](CO)[C@H](O)[C@H](O)[C@H]2O)c(-c2ccc(O)c(O)c2)oc2cc(O)cc(O)c12 [HYPEROSIDE]
6. O=C(O[C@H]1[C@H](Oc2c(-c3ccc(O)cc3)oc3cc(O)cc(O)c3c2=O)O[C@H](CO)[C@@H](O)[C@@H]1O)c1cc(O)c(O)c(O)c1

result:
< 40%
> 40%
> 40%
> 40%
> 40%
> 40%

---

Test system: RAW264.7
Assay: Antiinflammatory activity in mouse RAW264.7 cells assessed as inhibition of LPS-induced nitric oxide production after 18 hrs by griess reaction analysis
Assay type: functional, cell-based
Details: RAW264.7, 18 h
Label rule met when IC50 is strictly below 20 µM; otherwise label rule not met.

Please review the entries below; each comes with its answer.
[[record]]
cpd_smiles = "COC/C=C/c1ccc(O[C@@H]2O[C@H](CO)[C@@H](O)[C@H](O)[C@H]2O)c(OC)c1"
qualitative_label = "rule met"

[[record]]
cpd_smiles = "O=c1c(O[C@@H]2O[C@H](CO)[C@@H](O)[C@H](O)[C@H]2O)c(-c2cc(O)c(O)c(O)c2)oc2cc(O)cc(O)c12"
qualitative_label = "rule not met"

[[record]]
cpd_smiles = "COC(=O)c1cc(O)c(O)c(O)c1"
qualitative_label = "rule met"

[[record]]
cpd_smiles = "C[C@@H]1O[C@@H](OC[C@H]2O[C@@H](Oc3c(-c4ccc(O)c(O)c4)oc4cc(O)cc(O)c4c3=O)[C@H](O)[C@@H](O)[C@@H]2O)[C@H](O)[C@H](O)[C@H]1O"
qualitative_label = "rule not met"


Okay, now this molecule:
query: Just wondering, is IC50 of `O=c1c(O)c(-c2ccc(O)c(O)c2)oc2cc(O)cc(O)c12` below 20 µM?
result: rule not met

---

Test system: RAW264.7
Assay: Antiinflammatory activity in mouse RAW264.7 cells assessed as inhibition of LPS-induced TNF-alpha secretion at 0.4 uM after 18 hrs by sandwich ELISA
Assay type: functional, cell-based
Activity calls are given as the source filed them. The calls are words filed in the database; no cut-off is given here.
reported_property: inhibition

Below, each entry is followed by its recorded inhibition result.
[[record]]
compound = "O=c1c(O[C@@H]2O[C@H](CO)[C@@H](O)[C@H](O)[C@H]2O)c(-c2cc(O)c(O)c(O)c2)oc2cc(O)cc(O)c12"
target_under_test = "RAW264.7"
observed_measurement = "inactive"

[[record]]
compound = "O=C(O[C@H]1[C@H](Oc2c(-c3ccc(O)c(O)c3)oc3cc(O)cc(O)c3c2=O)O[C@H](CO)[C@@H](O)[C@@H]1O)c1cc(O)c(O)c(O)c1"
target_under_test = "RAW264.7"
observed_measurement = "inactive"

[[record]]
compound = "O=c1c(O[C@@H]2O[C@H](CO)[C@@H](O)[C@H](O)[C@H]2O)c(-c2ccc(O)c(O)c2)oc2cc(O)cc(O)c12 [ISOQUERCETIN]"
target_under_test = "RAW264.7"
observed_measurement = "inactive"

[[record]]
compound = "O=c1c(O[C@@H]2O[C@H](CO)[C@H](O)[C@H](O)[C@H]2O)c(-c2ccc(O)c(O)c2)oc2cc(O)cc(O)c12 [HYPEROSIDE]"
target_under_test = "RAW264.7"
observed_measurement = "inactive"

[[record]]
compound = "OC[C@H]1O[C@@H](OCc2ccccc2)[C@H](O)[C@@H]1O"
target_under_test = "RAW264.7"
observed_measurement = "inactive"

[[record]]
compound = "C[C@@H]1O[C@@H](Oc2c(-c3ccc(O)c(O)c3)oc3cc(O)cc(O)c3c2=O)[C@H](OC(=O)c2cc(O)c(O)c(O)c2)[C@H](O)[C@H]1O"
target_under_test = "RAW264.7"
observed_measurement = "inactive"

[[record]]
compound = "O=C(O[C@H]1[C@H](Oc2c(-c3ccc(O)cc3)oc3cc(O)cc(O)c3c2=O)O[C@H](CO)[C@@H](O)[C@@H]1O)c1cc(O)c(O)c(O)c1"
target_under_test = "RAW264.7"
observed_measurement = "inactive"

[[record]]
compound = "O=C(O[C@H]1[C@H](Oc2c(-c3ccc(O)cc3)oc3cc(O)cc(O)c3c2=O)O[C@H](CO)[C@@H](O)[C@@H]1OC(=O)c1cc(O)c(O)c(O)c1)c1cc(O)c(O)c(O)c1"
target_under_test = "RAW264.7"
observed_measurement = "inactive"

[[record]]
compound = "C[C@@H]1O[C@@H](OC[C@H]2O[C@@H](Oc3c(-c4ccc(O)c(O)c4)oc4cc(O)cc(O)c4c3=O)[C@H](O)[C@@H](O)[C@@H]2O)[C@H](O)[C@H](O)[C@H]1O [RUTIN]"
target_under_test = "RAW264.7"
observed_measurement = "inactive"

[[record]]
compound = "COC(=O)Cc1c2c3c(cc(O)c(O)c3oc1=O)C(=O)O[C@@H]2C(=O)OC"
target_under_test = "RAW264.7"
observed_measurement = "inactive"


Parameter requested: inhibition. Apply to each item below.
1. O=c1c(O)c(-c2ccc(O)c(O)c2)oc2cc(O)cc(O)c12 [QUERCETIN]
2. C[C@@H]1O[C@@H](OC[C@H]2O[C@@H](Oc3c(-c4ccc(O)cc4)oc4cc(O)cc(O)c4c3=O)[C@H](O)[C@@H](O)[C@@H]2O)[C@H](O)[C@H](O)[C@H]1O [NICOTIFLOROSIDE]
3. CC(=O)O[C@H]1[C@H](OC[C@H]2O[C@@H](Oc3ccc(O)cc3)[C@H](O)[C@@H](O)[C@@H]2O)O[C@@H](C)[C@H](OC(=O)c2ccc(O)cc2)[C@H]1O

result:
1: inactive; 2: inactive; 3: inactive

---

I'd be grateful if you could share measured inhibition for these entries.
Target: Bifunctional epoxide hydrolase 2 (Homo sapiens) (UniProt P34913)
Experiment: Inhibition of sEH (unknown origin) assessed as substrate PHOME hydrolysis at 25 uM after 1 hr by fluorescence method

Parameter requested: inhibition. Apply to each item below.
1. O=C(O[C@@H]1O[C@@H]2COC(=O)c3cc(O)c(O)c(O)c3-c3c(cc(O)c(O)c3O)C(=O)O[C@H]([C@H]1O)[C@@H]2O)c1cc(O)c(O)c(O)c1
2. O=c1c(O[C@@H]2O[C@H](CO)[C@@H](O)[C@H](O)[C@H]2O)c(-c2cc(O)c(O)c(O)c2)oc2cc(O)cc(O)c12

result:
["> 40%", "> 40%"]

Parameter requested: inhibition. Apply to each item below.
1. CC1=CC[C@@H](C(C)(C)O[C@@H]2O[C@H](CO[C@@H]3OC[C@H](O)[C@H](O)[C@H]3O)[C@@H](O)[C@H](O)[C@H]2O)CC1
2. COc1cc(/C=C/CO)cc(OC)c1O[C@@H]1O[C@H](CO)[C@@H](O)[C@H](O)[C@H]1O
3. O=C(OC[C@H]1O[C@@H](OC(=O)c2cc(O)c(O)c(O)c2)[C@H](O)[C@@H](OC(=O)c2cc(O)c(O)c(O)c2)[C@@H]1OC(=O)c1cc(O)c(O)c(O)c1)c1cc(O)c(O)c(O)c1
4. O=c1c(O)c(-c2ccc(O)c(O)c2)oc2cc(O)cc(O)c12
5. COC(=O)[C@H]1CC(=O)c2oc(=O)c3cc(O)c(O)c(O)c3c21

result:
1: < 40%; 2: < 40%; 3: > 40%; 4: > 40%; 5: > 40%
